B1: AUP1 (parent)
chain: EGLLRFSSWPFSIQDVVQPLTLQV

- Variants of: B1
- METHOD SUMMARY: protein stability index of a GFP-peptide fusion (GPS, HEK-293T) (PSI 1-6); higher = more stable;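 also: lentivirally expressed fusions sorted by FACS into six bins by GFP to DsRed ratio, PSI derived from sequencing read proportions per bin multiplied by bin number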
- CONDITION DESCRIPTION: c terminus: a fixed tail appended
Reported protein stability index is given for each of the following variants.
Please reply with the number alone, leaving off any unit.

Would you please look over these solved cases?
>  <MUTANT ID>
D15L

>  <protein stability index>
2.63

$$$$
>  <MUTANT ID>
R5K

>  <protein stability index>
1.37

$$$$
>  <MUTANT ID>
P19L

>  <protein stability index>
4.13

$$$$
>  <MUTANT ID>
I13H

>  <protein stability index>
1.94

$$$$
>  <MUTANT ID>
F6V

>  <protein stability index>
1.73

$$$$
>  <MUTANT ID>
L22A

>  <protein stability index>
1.68

$$$$
>  <MUTANT ID>
P10H

>  <protein stability index>
4

$$$$
>  <MUTANT ID>
P19S

>  <protein stability index>
4.01

$$$$

The variant listed as T21N has a reported protein stability index of 1.74

The variant listed as L20R has a reported protein stability index of 1.24

The variant listed as Q23R has a reported protein stability index of 2.91

The variant listed as W9P has a reported protein stability index of 1.28
